- experimental-target: T1, CD24-GST fusion protein
- T1 chain: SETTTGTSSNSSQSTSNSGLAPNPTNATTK
- protocol-description: competitive ELISA
recorded-endpoint: IC50 (µg/mL)
Answer in µg/mL, number only, no unit symbol.

See these solved cases before continuing.
binder: PP6234 (antibody, V domains shown) VH: EVKFEESGGGLVQPGGSIKLSCAASGVTFSEAWMDWVRQSPEKGLEWVAEIRDKTKNYVTYYAESVKGRFTISRDDSKSRVYLQMNNLRTEDTGIYYCTGAMDYWGQGTSVTVSS VL: DIVMTQTPLSLSVTIGQPASISCKSSQSLLYSNGKTYLNWLQQRPGQSPKRLIYQVSKLDPGTPDRFSGSGSETDFTLKISRVEAEDLGIYYCMQGASVPWTFGGGTKLEIKR
reported: 0.0426
//
binder: PP6231 (antibody, V domains shown) VH: EVKFEESGGGLVQPGGSIKLSCAASGVTFSEAWMDWVRQSPEKGLEWVAEIRDNTTNYVTYYAESVKGRFTISRDDSKSRVYLQMNNLRTEDTGIYYCTGAMDYWGQGTSVTVSS VL: DIVMTQTPLSLSVTIGQPASISCKSSQSLLYSNGKTYLNWLQQRPGQSPKRLIYQVSKLDPGIPDRFSGSGSETDFTLKISRVEAEDLGIYYCLQGTSYPWTFGGGTKLEIKR
reported: 0.0768

Could you now look at the following binder, please?
# lookup: IC50 of PP6230 (antibody, V domains shown) VH: EVKFEESGGGLVQPGGSIKLSCAASGVTFSEAWMDWVRQSPEKGLEWVAEIRDKSTNYVTYYAESVKGRFTISRDDSKSRVYLQMNNLRTEDTGIYYCTGAMDYWGQGTSVTVSS VL: DIVMTQTPLSLSVTIGQPASISCKSSQSLLYSNGKTYLNWLQQRPGQSPKRLIYQVSKLDPGIPDRFSGSGSETDFTLKISRVEAEDLGIYYCLQGTSYPWTFGGGTKLEIKR
0.0589
